- System: BT-549 breast
- Experimental Protocol: NCI tumour cell line growth inhibition, 384-well format
Listed below: TGI values for each entry.
Number only, in nM; omit the unit.

Reference set, count: 3
[
  {
    "Smiles Record": "CNCc1ccccc1-c1csc([C@@H](C)Nc2nc(C)nc3cc(OC)c(OC)cc23)c1",
    "Unit Abbrev": "nM",
    "Experimental Value": 2500
  },
  {
    "Smiles Record": "COC(=O)C[C@](O)(CCCC(C)(C)O)C(=O)O[C@@H]1C(OC)=C[C@]23CCCN2CCc2cc4c(cc2[C@H]13)OCO4",
    "Unit Abbrev": "nM",
    "Experimental Value": 34.8
  },
  {
    "Smiles Record": "Cc1cc(Nc2ccc(NC(=O)c3ccc(Nc4ccnc5ccccc45)cc3)cc2)nc(N)n1",
    "Unit Abbrev": "nM",
    "Experimental Value": 1120
  }
]

Okay, next one:
Could you please provide reported TGI for Cc1cc(Cl)cc(OCCn2cc(F)cn2)c1-c1nc(N)nc2c1CN(C(=O)NCC(C)(F)F)C2 ? Thanks! 769

---

- System: UACC-62 melanoma
- Experimental Protocol: NCI tumour cell line growth inhibition, 384-well format
// values below are reported TGI

[
  {
    "Smiles Record": "Nc1nn2cc(F)cnc2c1C(=O)Nc1cncc(F)c1N1CCC(C(=O)N2CCN(C3COC3)CC2)CC1",
    "TGI": "1570 nM"
  }
]

Respond only with TGI recorded for CNCc1ccccc1-c1csc([C@@H](C)Nc2nc(C)nc3cc(OC)c(OC)cc23)c1 3080 nM

Please look at this molecule and report its TGI: COC(=O)c1ccc2c(c1)nc(NC(=O)c1ccccc1)n2CCCc1ccccc1 > 100000 nM

Entry Cc1cc(Cl)cc(OCCn2cc(F)cn2)c1-c1nc(N)nc2c1CN(C(=O)NCC(C)(F)F)C2 needs its TGI filled in; supply it. 300 nM

---

- System: SF-268 CNS
- Experimental Protocol: NCI tumour cell line growth inhibition, 384-well format; in the data active means GI50 below about 0.43 µM; inactive means the rest
Would you mind answering with one of these outcomes? active, inactive

# count of solved cases: 3
[
  {
    "Smiles Record": "COC(=O)C[C@](O)(CCCC(C)(C)O)C(=O)O[C@@H]1C(OC)=C[C@]23CCCN2CCc2cc4c(cc2[C@H]13)OCO4",
    "Test Target": "SF-268 CNS",
    "Discrete Label": "active"
  },
  {
    "Smiles Record": "CNCc1ccccc1-c1csc([C@@H](C)Nc2nc(C)nc3cc(OC)c(OC)cc23)c1",
    "Test Target": "SF-268 CNS",
    "Discrete Label": "inactive"
  },
  {
    "Smiles Record": "COC(=O)c1ccc2c(c1)nc(NC(=O)c1ccccc1)n2CCCc1ccccc1",
    "Test Target": "SF-268 CNS",
    "Discrete Label": "inactive"
  }
]

Please examine the following record next.
Recorded test outcome, item Cc1cc(Cl)cc(OCCn2cc(F)cn2)c1-c1nc(N)nc2c1CN(C(=O)NCC(C)(F)F)C2 active

---

- Test system: SF-539 CNS
- Experimental Protocol: NCI tumour cell line growth inhibition, 384-well format
This section presents compounds with their documented TGI values.

Please review the entries below; each comes with its answer.
[
  {
    "Smiles Record": "Cc1cc(Nc2ccc(NC(=O)c3ccc(Nc4ccnc5ccccc45)cc3)cc2)nc(N)n1",
    "Experimental Value": "1.02 µM"
  },
  {
    "Smiles Record": "CNCc1ccccc1-c1csc([C@@H](C)Nc2nc(C)nc3cc(OC)c(OC)cc23)c1",
    "Experimental Value": "2.36 µM"
  },
  {
    "Smiles Record": "Cc1cc(Cl)cc(OCCn2cc(F)cn2)c1-c1nc(N)nc2c1CN(C(=O)NCC(C)(F)F)C2",
    "Experimental Value": "0.0628 µM"
  }
]

Let us move to another entry and its TGI.
Please look at this compound and report its TGI: COC(=O)C[C@](O)(CCCC(C)(C)O)C(=O)O[C@@H]1C(OC)=C[C@]23CCCN2CCc2cc4c(cc2[C@H]13)OCO4 0.0333 µM

---

- System: SF-539 CNS
- Experimental Protocol: NCI tumour cell line growth inhibition, 384-well format
Property: GI50

Known results for molecules:
[
  {
    "Smiles Record": "CNCc1ccccc1-c1csc([C@@H](C)Nc2nc(C)nc3cc(OC)c(OC)cc23)c1",
    "GI50": "1.14 µM"
  },
  {
    "Smiles Record": "Cc1cc(Nc2ccc(NC(=O)c3ccc(Nc4ccnc5ccccc45)cc3)cc2)nc(N)n1",
    "GI50": "0.552 µM"
  }
]

Tell me GI50 reported for COC(=O)C[C@](O)(CCCC(C)(C)O)C(=O)O[C@@H]1C(OC)=C[C@]23CCCN2CCc2cc4c(cc2[C@H]13)OCO4 0.0172 µM

Please list GI50 recorded for the molecule COC(=O)c1ccc2c(c1)nc(NC(=O)c1ccccc1)n2CCCc1ccccc1 2.13 µM
